target: PI3Kδ (recombinant GST-tagged PIK3CD co-expressed with PIK3R1, p85α) (Homo sapiens); construct: The protein is full length and co-expressed with untagged PIK3R1; GST; experiment: PI3Kδ inhibition, modified PIK3CD Adapta TR-FRET kinase assay; conditions: 2 μM ATP, 50 μM PIP2, 1 hour at room temperature, pIC50 = -log(IC50 in M)
OUTCOME MEASURE: IC50 (nM)

A: C[C@H](Nc1nc(N)nc(N)c1C#N)c1nc2ccn(C)c2cc1-c1ccccn1
B: C[C@H](Nc1nc(N)nc2[nH]cnc12)c1nc2ccn(C)c2cc1-c1ccccn1
C: C[C@@H](Nc1nc(N)nc(N)c1C#N)c1nc2ccn(C)c2cc1N1CCC(C)(O)CC1
Ask: Your job: order these 3 records by IC50, ascending. Arrange the labels as the request states and list them.
Result: A, B, C
(A: 1.58 nM, B: 5.01 nM, C: 2000 nM)

1: Cc1nc(N)nc(N[C@@H](C)c2nc3ccn(C)c3cc2-c2c(C)noc2C)c1C#N
2: C[C@H](Nc1nc(N)nc(N)c1C#N)c1nc2ccn(C)c2cc1-c1ccn[nH]1
Ask: Compare reported IC50 values for 1 and 2 . Which is lower? Selection: enter the item's label.
Result: 2

----------
molecular target: PI3Kδ (recombinant GST-tagged PIK3CD co-expressed with PIK3R1, p85α) (Homo sapiens, UniProt O00329); construct: The protein is full length and co-expressed with untagged PIK3R1; GST; assay: PI3Kδ inhibition, modified PIK3CD Adapta TR-FRET kinase assay; details: 2 μM ATP, 50 μM PIP2, 1 hour at room temperature, pIC50 = -log(IC50 in M)
Sequence (O00329 whole entry): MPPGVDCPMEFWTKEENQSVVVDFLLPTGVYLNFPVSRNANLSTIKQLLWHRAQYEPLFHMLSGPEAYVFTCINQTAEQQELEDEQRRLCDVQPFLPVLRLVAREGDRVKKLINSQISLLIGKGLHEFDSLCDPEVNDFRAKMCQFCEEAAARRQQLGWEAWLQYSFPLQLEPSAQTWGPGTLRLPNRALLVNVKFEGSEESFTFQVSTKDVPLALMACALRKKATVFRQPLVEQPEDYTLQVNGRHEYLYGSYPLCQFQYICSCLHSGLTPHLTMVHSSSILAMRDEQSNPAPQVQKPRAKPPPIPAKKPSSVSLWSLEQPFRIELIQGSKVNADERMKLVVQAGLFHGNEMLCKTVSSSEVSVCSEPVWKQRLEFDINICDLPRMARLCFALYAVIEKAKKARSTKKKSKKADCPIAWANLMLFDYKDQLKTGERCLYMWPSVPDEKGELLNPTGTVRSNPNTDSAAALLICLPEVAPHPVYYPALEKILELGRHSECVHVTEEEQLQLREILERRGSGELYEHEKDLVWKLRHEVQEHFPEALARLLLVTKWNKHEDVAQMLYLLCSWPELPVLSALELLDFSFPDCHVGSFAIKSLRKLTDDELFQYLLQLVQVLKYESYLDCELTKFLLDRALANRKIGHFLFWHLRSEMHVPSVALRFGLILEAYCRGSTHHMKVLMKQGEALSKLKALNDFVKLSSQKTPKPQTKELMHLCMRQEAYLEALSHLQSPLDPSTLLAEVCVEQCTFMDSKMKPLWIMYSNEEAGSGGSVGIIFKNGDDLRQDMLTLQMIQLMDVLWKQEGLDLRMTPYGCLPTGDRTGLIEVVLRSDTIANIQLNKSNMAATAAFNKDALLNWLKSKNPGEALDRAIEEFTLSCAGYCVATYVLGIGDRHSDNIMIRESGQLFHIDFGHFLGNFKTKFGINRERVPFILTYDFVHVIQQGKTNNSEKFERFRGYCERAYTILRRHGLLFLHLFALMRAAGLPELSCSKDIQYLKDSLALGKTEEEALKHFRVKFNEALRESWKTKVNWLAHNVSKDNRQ
Sequence (P27986 whole entry partner): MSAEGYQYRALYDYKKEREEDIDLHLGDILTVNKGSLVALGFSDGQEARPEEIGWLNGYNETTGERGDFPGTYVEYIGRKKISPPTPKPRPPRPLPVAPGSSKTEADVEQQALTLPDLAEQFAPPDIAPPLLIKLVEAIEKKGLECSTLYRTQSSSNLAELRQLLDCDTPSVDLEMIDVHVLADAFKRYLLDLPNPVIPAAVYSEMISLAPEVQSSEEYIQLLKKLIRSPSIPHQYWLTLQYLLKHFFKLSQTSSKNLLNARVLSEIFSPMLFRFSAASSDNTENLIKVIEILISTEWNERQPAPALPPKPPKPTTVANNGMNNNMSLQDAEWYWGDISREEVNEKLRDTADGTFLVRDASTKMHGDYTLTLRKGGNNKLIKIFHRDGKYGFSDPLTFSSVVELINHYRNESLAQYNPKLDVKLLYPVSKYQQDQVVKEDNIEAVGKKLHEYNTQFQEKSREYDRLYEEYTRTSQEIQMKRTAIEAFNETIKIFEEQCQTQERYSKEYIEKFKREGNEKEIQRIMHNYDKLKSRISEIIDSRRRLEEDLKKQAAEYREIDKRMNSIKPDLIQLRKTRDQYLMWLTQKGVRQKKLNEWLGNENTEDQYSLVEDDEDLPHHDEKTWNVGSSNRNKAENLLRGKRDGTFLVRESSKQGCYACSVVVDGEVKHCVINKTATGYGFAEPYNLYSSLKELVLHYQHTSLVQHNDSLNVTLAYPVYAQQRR
pIC50: −log10 of the molar value.
OUTCOME MEASURE: pIC50

compound=C[C@H](Nc1nc(N)nc2[nH]cnc12)c1nc2ccn(C)c2cc1-c1ccnn1C(F)F val=8.00

I: Cc1n[nH]c(C)c1-c1cc2c(ccn2C)nc1[C@H](C)Nc1nc(N)nc(N)c1C#N
II: C[C@H](Nc1nc(N)nc(N)c1C#N)c1nc2ccn(C)c2cc1N1CC2(COC2)C1
Ask: Compare reported pIC50 values for I and II . Which is lower? Selection: enter the item's label.
Result: II

A: Cc1nc(N)c(C#N)c(NC(C)c2nc3ccn(C)c3cc2N2CCOCC2)n1 (stereo not shown)
B: Cc1n[nH]cc1-c1cc2c(ccn2C)nc1[C@H](C)Nc1nc(N)nc(C)c1C#N
Ask: Sort A and B by pIC50 descending and give the first. Selection: enter the item's label.
Result: B

----------
# pIC50 listing for each entry below
biological target: PI3Kδ (recombinant GST-tagged PIK3CD co-expressed with PIK3R1, p85α) (Homo sapiens, UniProt O00329); construct: The protein is full length and co-expressed with untagged PIK3R1; GST; assay: PI3Kδ inhibition, modified PIK3CD Adapta TR-FRET kinase assay; details: 2 μM ATP, 50 μM PIP2, 1 hour at room temperature, pIC50 = -log(IC50 in M)
pIC50: −log10 of the molar value.

compound_smiles=C[C@H](Nc1nc(N)nc(N)c1C#N)c1nc2ccn(C)c2cc1N1CCC(C)(O)CC1 val=8.30

Ask: Return reported pIC50; argument: `C[C@H](Nc1nc(N)nc(N)c1C#N)c1nc2ccn(C)c2cc1-c1cscn1`
Result: > 9.00

Ask: Return reported pIC50; argument: `COC1CN(c2cc3c(ccn3C)nc2[C@H](C)Nc2nc(N)nc(N)c2C#N)C1`
Result: > 8.80

# credit: patent US8835420B2
